Task for the reader: assign each of the following variants its reported polymerase ribozyme fitness (log ratio).
B1: TPR t1 (parent)
chain: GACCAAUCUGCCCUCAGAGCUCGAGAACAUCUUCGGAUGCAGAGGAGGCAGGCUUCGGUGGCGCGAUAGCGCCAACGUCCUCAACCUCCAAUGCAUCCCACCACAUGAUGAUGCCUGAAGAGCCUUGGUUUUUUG

Variants of: B1
protocol-description: polymerase ribozyme fitness, log enrichment relative to wild type (log ratio); higher = more active; in vitro selection for triplet polymerase activity
One number for each entry.

Answered cases to consult:
C8G A18C G39C U133G : -2.2
G42A C56G G122A : -3.21
A27U U54A A75U U78C G127C : -6.04
U87G A103C : -5.65
A66G U106G : -3.66

Please state, for each entry, its recorded polymerase ribozyme fitness (log ratio).
1. C40U A74U A111C
2. C85G U112G
3. G36A G47A G61U
4. A37G C49G A111U U126G
5. A5U G36U
6. U7C G10A C11G G93U
7. A18G C64U G113A

result:
1. -1.01
2. -1.15
3. -1.37
4. -6.22
5. -1.3
6. -1.34
7. -1.65
